# credit: patent US20250268897A1

- system.name: RET-G810S enzyme (Homo sapiens (Human), UniProt P07949, G810S)
- Sequence (P07949 29-1114 G810S): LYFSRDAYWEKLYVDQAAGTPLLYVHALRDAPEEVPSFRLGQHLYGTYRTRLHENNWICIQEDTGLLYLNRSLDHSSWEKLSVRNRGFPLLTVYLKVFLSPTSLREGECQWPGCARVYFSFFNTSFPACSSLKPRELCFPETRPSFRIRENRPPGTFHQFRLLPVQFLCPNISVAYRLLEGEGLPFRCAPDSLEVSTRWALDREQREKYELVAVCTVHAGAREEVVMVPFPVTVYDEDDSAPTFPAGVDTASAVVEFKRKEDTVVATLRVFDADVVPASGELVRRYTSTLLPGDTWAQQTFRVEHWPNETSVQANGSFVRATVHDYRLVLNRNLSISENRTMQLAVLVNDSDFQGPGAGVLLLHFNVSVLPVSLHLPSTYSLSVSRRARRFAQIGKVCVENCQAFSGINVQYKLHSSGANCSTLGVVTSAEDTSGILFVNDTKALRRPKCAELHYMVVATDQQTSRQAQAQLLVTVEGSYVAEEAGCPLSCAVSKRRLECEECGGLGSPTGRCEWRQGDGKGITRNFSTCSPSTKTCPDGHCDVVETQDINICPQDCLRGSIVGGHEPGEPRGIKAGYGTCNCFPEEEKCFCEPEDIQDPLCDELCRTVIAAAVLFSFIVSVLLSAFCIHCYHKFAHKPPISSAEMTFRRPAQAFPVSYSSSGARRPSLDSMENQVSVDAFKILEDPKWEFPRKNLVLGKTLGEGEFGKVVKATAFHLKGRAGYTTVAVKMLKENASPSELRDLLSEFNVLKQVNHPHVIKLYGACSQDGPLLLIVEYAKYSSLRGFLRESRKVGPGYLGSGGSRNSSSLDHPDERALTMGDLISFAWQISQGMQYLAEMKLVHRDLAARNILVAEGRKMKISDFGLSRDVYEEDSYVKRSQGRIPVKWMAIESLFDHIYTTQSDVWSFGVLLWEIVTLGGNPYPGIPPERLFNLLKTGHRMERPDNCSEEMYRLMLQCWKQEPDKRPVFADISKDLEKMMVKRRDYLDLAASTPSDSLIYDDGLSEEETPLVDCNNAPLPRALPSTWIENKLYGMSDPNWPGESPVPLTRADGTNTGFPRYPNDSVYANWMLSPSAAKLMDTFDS
- assay.remarks: RET inhibition experiment, HTRF KinEASE-TK kit, RET-G810S
- Format: biochemical
- test.conditions: compound concentration 300 nM; read-out: Inhibition rate on RET-G810S (%)
attribute.measured: inhibition at 0.3 µM (%)
Number in %, nothing else.

compound | readout.unit | inhibition at 0.3 µM
Cc1cc(Nc2cc(C)[nH]n2)nc(-c2ccc(N3CC4CC(C3)N4Cc3ccc(-n4ccc(C5CC5)n4)cc3)nc2)n1 [Compound 15] | % | 97.2
Cc1cc(Nc2cc(C)[nH]n2)nc(-c2ccc(N3CC4CC(C3)N4Cc3ccc(-n4nc(F)cc4C)nc3)nc2)n1 [Compound 28] | % | 90.8
Cc1cc(Nc2cc(C)[nH]n2)nc(-c2ccc(N3CC4CC(C3)N4Cc3ccc(-c4ccco4)nc3)nc2)n1 [Compound 29] | % | 93.2

Value of inhibition at 0.3 µM reported for the compound Cc1cc(Nc2cc(C)[nH]n2)nc(-c2ccc(N3CC4CC(C3)N4Cc3ccc(-n4nccc4C4CC4)cc3)nc2)n1 [Compound 14] is 92.6

Value of inhibition at 0.3 µM reported for the compound Cc1cc(Nc2cc(C)[nH]n2)nc(-c2ccc(N3CC4CC(C3)N4Cc3ccc(-n4cc(Cl)cn4)nc3)nc2)n1 [Compound 9] is 97.6

Value of inhibition at 0.3 µM reported for the compound Cc1cc(Nc2cc(C)[nH]n2)nc(-c2ccc(N3CC4CC(C3)N4Cc3cnc(-n4cc(F)cn4)cn3)nc2)n1 [Compound 31] is 99.7
